This collection of values is drawn from patent US20220324934A1.

Biological target: T1, IL-2Rβ (UniProt P14784 27-240, limits assumed, biotinylated (site not stated))
T1 construct: also called CD122; IL-2Rbeta
T1 sequence (looked up): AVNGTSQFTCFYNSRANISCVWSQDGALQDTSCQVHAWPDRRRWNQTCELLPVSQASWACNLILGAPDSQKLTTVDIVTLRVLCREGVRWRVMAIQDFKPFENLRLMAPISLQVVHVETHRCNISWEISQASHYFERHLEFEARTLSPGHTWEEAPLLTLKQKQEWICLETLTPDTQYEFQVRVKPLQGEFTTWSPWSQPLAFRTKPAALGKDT
Experiment: SPR Biacore T100, kinetic fit; biotinylated IL-2Rβ on chip
reportedEndpoint: koff (s⁻¹)

binder="in silico designed IL-2 variant SEQ ID NO: 10, MSA fusion protein (ligand, not shown: mouse serum albumin (MSA), fusion partner) APTSSSTKKTQLQLEHLLLDLQMILNMLNNYDNPKLTRLLTFKFYMPKKATSLKHLQCLEEELKPLEEALNQASKDQKKVRDVVSNINVFVLELKGSETTFMCEYADETATIIEFLNRWITFCQSIISTLT" recordedvalue=0.015
binder="in silico designed IL-2 variant SEQ ID NO: 2, MSA fusion protein (ligand, not shown: large carriers; small tags and cut ends) APTSSSTKKTQLQLEHLLLDLQMILNMLNNYDNPKLTRLLTFKFYMPKKATELKHLQCLEEELKPLEEALNAAGDDPKTIRDLISNINVIVLELKGSETTFMCEYADETATIIEFLNRWITFCQSIISTLT" recordedvalue=0.055
binder="in silico designed IL-2 variant SEQ ID NO: 17, MSA fusion protein (ligand, not shown: large carriers; small tags and cut ends) APTSSSTKKTQLQLEHLLLDLQMILNMLNNYDNPKLTRLLTFKFYMPKKATSLKHLQCLEEELKPLEEALNLAQSKNFHLDPRDLISNINVIVLELKGSETTFMCEYADETATIIEFLNRWITFCQSIISTLT" recordedvalue=0.091
binder="in silico designed IL-2 variant SEQ ID NO: 6, MSA fusion protein (ligand, not shown: large carriers; small tags and cut ends) APTSSSTKKTQLQLEHLLLDLQMILNMLNNYENPKLTRMLTFKFYMPKKATSLKHLQCLEEELKPLEEALNQAGDDPKTIRDLISNINVIVLELKGSETTFMCEYADETATIIEFLNRWITFCQSIISTLT" recordedvalue=0.046
